All values here come from patent US8198456B2.

- STUDY TARGET: recombinant human c-MET kinase enzyme domain (Homo sapiens)
- Construct: Recombinant c-Met kinase domain (amino acids 960-1390); His (N); SF21 is named only for the alternative format)
- Sequence (P08581 960-1390): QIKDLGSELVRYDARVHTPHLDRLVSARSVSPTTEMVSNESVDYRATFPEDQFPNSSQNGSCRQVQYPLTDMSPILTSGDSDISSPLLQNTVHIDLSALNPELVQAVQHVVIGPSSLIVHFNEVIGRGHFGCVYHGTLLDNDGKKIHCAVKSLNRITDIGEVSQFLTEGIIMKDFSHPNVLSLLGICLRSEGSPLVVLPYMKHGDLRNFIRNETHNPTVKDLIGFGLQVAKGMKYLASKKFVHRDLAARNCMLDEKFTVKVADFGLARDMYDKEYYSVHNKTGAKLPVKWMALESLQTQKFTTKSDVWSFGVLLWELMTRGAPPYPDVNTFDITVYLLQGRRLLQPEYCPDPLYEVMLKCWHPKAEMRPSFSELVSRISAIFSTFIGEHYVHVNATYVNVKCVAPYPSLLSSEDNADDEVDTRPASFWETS
- TEST DESCRIPTION: c-MET receptor tyrosine kinase Homogeneous Time Resolved Fluorescence assay (HTRF)
- STATED CONDITIONS: Biological Example 1 and/or Biological Example 2
pIC50: −log10 of the molar value. Counter-ions that a name gives are not always drawn.
Provide the reported pIC50 of each item.

Known results for compounds:
{"COMPOUND": "CC1=C(C#N)C(c2ccc3[nH]nc(N4CCNCC4)c3c2)C(C#N)=C(C)N1", "pIC50": "> 7.00"}
{"COMPOUND": "CC1=C(C#N)C(c2ccc3[nH]nc(NCCN4CCCC4)c3c2)C(C#N)=C(C)N1", "pIC50": "> 7.00"}
{"COMPOUND": "CC1=C(C#N)C(c2ccc3[nH]nc(-c4ccc(N5CCN(C)CC5)nc4)c3c2)C(C#N)=C(C)N1", "pIC50": "> 7.00"}
{"COMPOUND": "CC1=C(C#N)C(c2ccc3[nH]nc(C#CCN(C)C)c3c2)C(C#N)=C(C)N1", "pIC50": "> 7.00"}
{"COMPOUND": "CC1=C(C#N)C(c2ccc3[nH]nc(C(=O)NCCC4CCCN4C)c3c2)C(C#N)=C(C)N1 (stereo not drawn)", "pIC50": "> 7.00"}
{"COMPOUND": "CON(C)C(=O)c1n[nH]c2ccc(C3C(C#N)=C(C)NC(C)=C3C#N)cc12", "pIC50": "> 7.00"}

Could I get pIC50 for every one of these entries?
1. CC1=C(C#N)C(c2ccc3[nH]ncc3c2)C(C#N)=C(c2ccc(N(C)CCO)nc2)N1 (stereo not drawn)
2. CC1=C(C#N)C(c2ccc3[nH]nc(/C=N/O)c3c2)C(C#N)=C(C)N1
3. CC1=C(C#N)C(c2ccc3[nH]nc(N)c3c2)C(C#N)=C(c2cc(C)oc2C)N1 (stereo not drawn)
4. CC1=C(C#N)C(c2ccc3[nH]nc(NCCO)c3c2)C(C#N)=C(C)N1
5. CC(=O)Nc1cccc(C2C(C#N)=C(C)NC(C)=C2C#N)c1
6. CC1=C(C#N)C(c2cccc(C(=O)Nc3cccnc3)n2)C(C#N)=C(C)N1
7. CC1=C(C#N)C(c2ccc3[nH]nc(NCCN)c3c2)C(C#N)=C(C)N1
8. COC(=O)c1cccc(C2C(C#N)=C(C)NC(C)=C2C#N)c1

Reply:
["> 7.00", "> 7.00", "> 7.00", "> 7.00", "5.60 to 6.30", "6.30 to 7.00", "> 7.00", "6.30 to 7.00"]

Could I get pIC50 for every one of these entries?
1. COC(=O)c1cccc(C2C(C#N)=C(C)NC(c3ccc(N)cc3)=C2C#N)c1 (stereo not drawn)
2. CC1=C(C#N)C(c2ccc3[nH]nc(N)c3c2)C(C#N)=C(c2ccc(Cl)cc2)N1 (stereo not drawn)
3. CNC(=O)c1n[nH]c2ccc(C3C(C#N)=C(C)NC(C)=C3C#N)cc12 [99.1, TFA salt]
4. CC1=C(C#N)C(c2ccc3[nH]nc(NCC4CCN(C(=O)OC(C)(C)C)CC4)c3c2)C(C#N)=C(C)N1

Reply:
1. 6.30 to 7.00
2. > 7.00
3. > 7.00
4. 5.60 to 6.30

Could I get pIC50 for every one of these entries?
1. COC(=O)c1cccc(C2C(C#N)=C(C)NC(c3cccc(N)c3)=C2C#N)c1 (stereo not drawn)
2. CC1=C(C#N)C(c2ccc3c(c2)c(N)nn3C(=O)OC(C)(C)C)C(C#N)=C(C)N1
3. CC1=C(C#N)C(c2ccc3[nH]nc(N)c3c2)C(C#N)=C(C)N1Cc1ccccc1

Reply:
1. 6.30 to 7.00
2. 6.30 to 7.00
3. > 7.00
